# System: SK-MEL-28 melanoma
# procedure text: NCI-60 one-dose screen, 48 h (100 = growth as untreated, 0 = no growth, -100 = all killed)
# experimental setup: 10 µM
The panel holds about 83,000 compounds, 20% with a hit somewhere; the sample as a whole holds those more often.
List of growth values.
assay metric: growth (%)

compound=COC(=O)c1cccnc1 recorded_result=103
compound=COc1cc(C(=O)NC(=S)Nc2ccc3ccccc3c2)cc(OC)c1OC recorded_result=98.1
compound=CC(=O)Nc1cccc(NC(C)=O)n1 recorded_result=108
compound=CCCCCCCO recorded_result=98.3
compound=Cc1ccc(C)n1-c1ccsc1C(=O)NNC(=O)C(Cl)Cl recorded_result=112
compound=CCCCCCCCCCCCCC(=O)Oc1ccc[nH]c1=O recorded_result=109
compound=C=C[Si](OC(C)=O)(OC(C)=O)OC(C)=O recorded_result=104
compound=O=[N+]([O-])c1ccc(S(=O)(=O)NN=C2CCCCC2)cc1 recorded_result=110
compound=CCN1C(=O)/C(=C/C=C/N(C)c2ccccc2)SC1=S recorded_result=94.6
compound=CC(C)CCCC(=O)O recorded_result=99
compound=N#Cc1ccc(OC(=O)Nc2ccc(Cl)c(Cl)c2)cc1 recorded_result=94.1
compound=CC(=O)N(C)c1ccc([N+](=O)[O-])cc1 recorded_result=114
compound=COC(=O)/C=C1\Sc2cc(F)ccc2NC1=O recorded_result=129
compound="CC(=O)OCC1CCCO1 (configuration not stated)" recorded_result=108
compound=O=C(c1ccc(O)cc1)c1ccc(O)cc1 recorded_result=110
compound=CC(C)CCOC(=O)c1ccccc1 recorded_result=103
compound=COCCCC/C(=N\OCCN)c1ccc(C(F)(F)F)cc1 recorded_result=117
compound=Cc1cc(C(C)(C)C)cc(C)c1Br recorded_result=109
compound=C/C(=C\c1ccc([N+](=O)[O-])cc1)C(=O)O recorded_result=111
compound=CC(=O)c1cc2c(cc1F)C(C)(C)CCC2(C)C recorded_result=107
compound=Cc1cc2ccccc2c(O)c1C#N recorded_result=115
compound=O=C(O)c1cccc([N+](=O)[O-])c1O recorded_result=116
compound=CNS(=O)(=O)c1ccc(Cl)c(Cl)c1 recorded_result=119
compound=O=C(Cc1ccccc1)Cc1ccccc1 recorded_result=108
compound=COc1cc2nc3cc([N+](=O)[O-])ccc3c(Cl)c2cc1OC recorded_result=108
compound=C/C(O)=C(\C=N\C(N)=S)C(=O)Nc1ccccc1 recorded_result=116
compound=O=C(Cc1ccc(OCc2ccccc2)cc1)NCc1ccc2c(c1)OCO2 recorded_result=74.7
compound=CCOC(=O)c1cc2cccc(OC)c2oc1=O recorded_result=116
compound="CCOC(=O)C1=C(C)NC(=O)NC1c1cccs1 (configuration not stated)" recorded_result=106
compound=N#CSc1cc(S(N)(=O)=O)ccc1N recorded_result=102
compound="O=C(O)CCC(NC(=O)OCc1ccccc1)C(=O)O (configuration not stated)" recorded_result=109
compound=O=C(Cc1nc2ccc([N+](=O)[O-])cc2nc1CC(=O)c1cccnc1)c1cccnc1 recorded_result=80.6
compound=COc1ncnc2c1cnn2C recorded_result=111
compound=O=C1C[C@H](c2ccccc2)[C@H](c2ccccc2)C1 recorded_result=109
compound="CC1(C(=O)O)NC(C(=O)O)Cc2c1[nH]c1ccccc21 (configuration not stated)" recorded_result=103
compound="OC1OC(COC(c2ccccc2)(c2ccccc2)c2ccccc2)C(O)C(O)C1O (configuration not stated)" recorded_result=91.4
compound=NNc1ccccc1C(=O)O recorded_result=118
compound=C=CC[N+](C)(C)C recorded_result=107
compound=Oc1ccc(N=Nc2ccc(Br)cc2)c(O)c1 recorded_result=51.2
compound=COc1cc(CN)ccc1O recorded_result=117
compound=Cc1cc(=O)n(-c2ccc(F)cc2)[nH]1 recorded_result=119
compound=Cc1cc(/C=C/c2ccc3cc(N(C)C)ccc3[n+]2C)c(C)n1-c1ccccc1 recorded_result=-63.9
compound=COc1cc(/C=C/C(=O)c2ccccc2)cc(OC)c1OC recorded_result=82.3
compound=CC1(C)N=C(N)N=C(N)N1c1ccc(Cl)cc1 recorded_result=90.4
compound=CCN(CC)C(=O)/C=C(/C)c1ccccc1 recorded_result=106
compound=CCCNC(=O)c1ccc(S(N)(=O)=O)cc1 recorded_result=97.8
compound=COc1cccc(Sc2ccc([N+](=O)[O-])c3no[n+]([O-])c23)c1 recorded_result=55
